Target: Akt2 (Homo sapiens, UniProt P31751)
Sequence (P31751 whole entry): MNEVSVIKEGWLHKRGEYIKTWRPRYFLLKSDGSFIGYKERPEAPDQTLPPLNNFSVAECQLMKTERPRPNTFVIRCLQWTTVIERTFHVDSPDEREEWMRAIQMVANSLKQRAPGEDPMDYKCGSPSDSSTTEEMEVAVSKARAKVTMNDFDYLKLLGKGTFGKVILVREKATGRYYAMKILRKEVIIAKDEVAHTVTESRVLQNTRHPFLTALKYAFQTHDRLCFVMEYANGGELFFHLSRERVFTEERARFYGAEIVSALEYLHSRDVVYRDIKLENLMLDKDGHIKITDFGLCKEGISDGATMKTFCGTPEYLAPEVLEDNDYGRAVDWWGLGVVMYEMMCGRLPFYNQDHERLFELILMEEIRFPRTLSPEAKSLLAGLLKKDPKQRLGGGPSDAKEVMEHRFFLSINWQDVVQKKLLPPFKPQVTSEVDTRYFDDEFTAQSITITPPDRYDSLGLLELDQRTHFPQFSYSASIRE
pIC50: −log10 of the molar value.
Classification field: Criterion met = pIC50 at or over 6; Criterion not met = pIC50 under 6.

{"columns": ["MOLECULE", "LABEL_VALUE"],
 "data": [
  ["Cc1cnn2c1-c1cc(C(=O)N[C@H](CN)Cc3ccc(F)c(F)c3)sc1CCC2 [Embodiment 35]", "Criterion met"],
  ["NC[C@H](Cc1cccc(F)c1)NC(=O)c1cc2c(s1)C(O)CCn1ncc(Cl)c1-2 (some centres unmarked) [Embodiment 32]", "Criterion not met"],
  ["CCc1cnn2c1-c1cc(C(=O)N[C@H](CN)Cc3cccc(F)c3)sc1CCC2 [Embodiment 25]", "Criterion met"],
  ["NC[C@H](Cc1cccc(F)c1)NC(=O)c1cc2c(s1)CCCn1ncc(-c3cccnc3)c1-2 [Embodiment 24]", "Criterion not met"],
  ["NC[C@H](Cc1ccc(F)c(F)c1)NC(=O)c1cc2c(s1)OCCn1ncc(Br)c1-2 [Embodiment 37]", "Criterion met"],
  ["NC[C@@H](NC(=O)c1cc2c(s1)CCCn1ncc(Cl)c1-2)c1ccccc1 [Embodiment 13]", "Criterion met"],
  ["CN(C)C[C@H](Cc1cccc(F)c1)NC(=O)c1cc2c(s1)CCCn1ncc(Cl)c1-2 [Embodiment 12]", "Criterion not met"],
  ["NC[C@H](Cc1ccccn1)NC(=O)c1cc2c(s1)CCCn1ncc(Br)c1-2 [Embodiment 20]", "Criterion met"]
]}
